Tested on: galium
ASSAY OVERVIEW: Test C preemergence
Format: in vivo, Galium aparine
STUDY CONDITIONS: preemergence, 62 g ai/ha; scale 0 to 100 (0 no effect, 100 complete control), 13 to 15 days
MEASURED ENDPOINT: Galium plant response rating

CCc1cc(C(=O)NCC(F)(F)F)nn1Cc1ccnc(SC(F)(F)F)c1 [Compound 214]	80
CCCNC(=O)c1cc(OCC)n(Cc2ccnc(C(F)(F)F)c2)n1 [Compound 187]	95
CCCNC(=O)c1cc(CC)n(Cc2nc(C(F)(F)F)nn2C)n1 [Compound 109]	100

Batch of 4 compounds: report Galium plant response rating for each.
1. CCCc1cc(C(=O)NC(C)C)nn1Cc1ccnc(C(F)(F)F)c1 [Compound 186]
2. CCc1cc(C(=O)NOC(C)C)nn1Cc1ccnc(OC(F)F)c1 [Compound 126]
3. CCONC(=O)c1cc(CC)n(Cc2ccnc(OC(F)F)c2)n1 [Compound 131]
4. CCOc1cc(C(=O)NCC(F)(F)F)nn1Cc1ccnc(OC(F)F)c1 [Compound 128]

Result ::
1: 100; 2: 98; 3: 75; 4: 80

# per-item lookup of Galium plant response rating; items listed below
1. CCc1cc(C(=O)NC2CC2)nn1Cc1ccnc(Br)c1 [Compound 220]
2. CCCc1cc(C(=O)NC2CC2)nn1Cc1cc(C(F)(F)F)nn1C [Compound 202]
3. CCc1cc(C(=O)NCC(F)(F)F)nn1Cc1ccnc(Br)c1 [Compound 224]

Result ::
[80, 100, 80]

---

System: foxtail, giant
ASSAY OVERVIEW: Test A preemergence
Format: in vivo, Setaria faberii
STUDY CONDITIONS: preemergence, 125 g ai/ha, visual injury approx. 10 days after treatment
Description: […]
MEASURED ENDPOINT: Foxtail, Giant plant response rating (0 to 100 scale)

Guide cases for Foxtail, Giant plant response rating (0 to 100 scale), answers given:
O=C(NCC(F)(F)F)c1cc(CCF)n(Cc2ccnc(C(F)(F)F)c2)n1	100
CCc1cc(C(=O)NC(C)C)nn1Cc1ccnc(OCC(F)(F)F)c1	70
CCCNC(=O)c1cc(CC)n(Oc2cccc(C(F)(F)F)c2)n1	10
CCc1cc(C(=O)NCC(F)(F)F)nn1Oc1cccc(C(F)(F)F)c1 [Compound 217]	0

Record CCONC(=O)c1cc(CC)n(Cc2cc(OC(F)F)nn2C)n1 has foxtail, giant Foxtail, Giant plant response rating (0 to 100 scale) equal to 0

---

Tested on: foxtail, giant
ASSAY OVERVIEW: Test C preemergence
Type: in vivo, Setaria faberii
STUDY CONDITIONS: preemergence, 125 g ai/ha; 13 to 15 days; scale 0 to 100, 0 = no effect, 100 = complete control
Provide the recorded Plant response rating, Foxtail, Giant for the entries that follow.
Numbers only.

Below: 3 molecules and their reported Plant response rating, Foxtail, Giant.
CCCc1cc(C(=O)NC(C)C)nn1Cc1cc(C(F)(F)F)nn1C [Compound 201]	100
CCCc1cc(C(=O)NC2CC2)nn1Cc1cc(C(F)(F)F)nn1C [Compound 202]	100
CCONC(=O)c1cc(CC)n(Cc2ccnc(OC(F)F)c2)n1 [Compound 131]	100

Now turn to the next molecule.
Notebook: CCCc1cc(C(=O)NC2CC2)nn1Cc1ccnc(OC(F)F)c1 [Compound 205] , Plant response rating, Foxtail, Giant read as 100

---

System: morningglory
ASSAY OVERVIEW: Test A postemergence
Format: in vivo, Ipomoea spp.
STUDY CONDITIONS: Postemergence, 125 g ai/ha; 0 to 100 scale, 0 no effect, 100 complete control
MEASURED ENDPOINT: Morningglory plant response rating
Answers are plain numbers.

Answered examples (4):
CCc1cc(C(=O)NC2CC2)nn1Cc1ccnc(Br)c1	50
CCc1cc(C(=O)NCC(F)(F)F)nn1Cc1ccnc(SC(F)(F)F)c1	80
CCCc1cc(C(=O)NOC(C)C)nn1Cc1cc(C(F)(F)F)nn1C	50
CCc1cc(C(=O)NCC(F)(F)F)nn1Cc1nc(C(F)(F)F)no1	30

Lab book: Morningglory plant response rating of CCc1cc(C(=O)NCC(F)(F)F)nn1Cc1cc(C(F)(F)C(F)(F)F)nn1C noted as 70

---

Provide the recorded Foxtail, Giant plant response rating for the entries that follow.
Test system: foxtail, giant
ASSAY OVERVIEW: Test A postemergence
Format: in vivo, Setaria faberii
STUDY CONDITIONS: Postemergence, 500 g ai/ha; 0 to 100 scale (0 no effect, 100 complete control)
One number for each entry.

Use these answered entries as a reference point.
O=C(NC1CC1)c1cc(CCCl)n(Cc2ccnc(C(F)(F)F)c2)n1 [Compound 144]	90
CCc1cc(C(=O)NC2CC2)nn1Cc1cc(C(F)(F)F)nn1C(C)C [Compound 212]	10
CCCCNC(=O)c1cc(I)n(Cc2cccc(C(F)(F)F)c2)n1 [Compound 182]	20
CCONC(=O)c1cc(CC)n(Cc2ccnc(OC(F)F)c2)n1 [Compound 131]	90
CCc1cc(C(=O)NCC(F)(F)F)nn1Oc1cccc(C(F)(F)F)c1 [Compound 217]	30

List Foxtail, Giant plant response rating for every entry below, keeping the order given.
1. O=C(NC1CC1)c1cc(I)n(Cc2cccc(C(F)(F)F)c2)n1 [Compound 180]
2. CCc1cc(C(=O)NC2CC2)nn1Cc1ccnc(Br)c1 [Compound 220]
3. CCCNC(=O)c1cc(COC)n(Cc2ccnc(C(F)(F)F)c2)n1 [Compound 168]
4. CCCNC(=O)c1cc(CC)n(Oc2cccc(OC(F)(F)F)c2)n1 [Compound 219]
5. COCc1cc(C(=O)NC2CC2)nn1Cc1ccnc(C(F)(F)F)c1 [Compound 167]
6. CCCCNC(=O)c1cc(Br)n(Cc2cccc(C(F)(F)F)c2)n1 [Compound 162]

Result ::
1. 30
2. 100
3. 90
4. 60
5. 90
6. 20

Dear colleague, could you send me Foxtail, Giant plant response rating for each of the items below? Thanks.
1. CCc1cc(C(=O)NCC(F)(F)F)nn1Cc1cc(C(F)(F)C(F)(F)F)nn1C [Compound 227]
2. CCCNC(=O)c1cc(CC)n(Oc2cccc(C(F)(F)F)c2)n1 [Compound 216]

Result ::
1: 90; 2: 40

---

Field: Crabgrass, Large plant response rating. Provide a value for each of the compounds that follow.
Test system: crabgrass, large
ASSAY OVERVIEW: Test A postemergence
Format: in vivo, Digitaria sanguinalis
STUDY CONDITIONS: Postemergence, 1000 g ai/ha; visual rating after approx. 10 days, 0 to 100 scale (0 no effect, 100 complete control)
From the text: […]
Give bare numbers.

Previously resolved entries follow.
Cc1cc(C(=O)NCC(F)(F)F)nn1Cc1ccnc(C(F)(F)F)c1 [Compound 74]	100
CCc1cc(C(=O)NC(C)(C)C)nn1Cc1cccc(OC(F)(F)F)c1 [Compound 59]	10
C#CCNC(=O)c1cc(CC)n(Cc2cccc(C(F)(F)F)c2)n1 [Compound 41]	20
CCc1cc(C(=O)NC2CC2)nn1Cc1cccc(C(F)(F)F)c1 [Compound 15]	90
CCc1cc(C(=O)NCC2CC2)nn1Cc1cccc(OC(F)(F)F)c1 [Compound 53]	50

Let us examine a further case.
Quick note, Crabgrass, Large plant response rating for Cc1cc(C(=O)NC(C)(C)C)nn1Cc1cccc(C(F)(F)F)c1 [Compound 1] landed at 30

---

Test system: oilseed rape
ASSAY OVERVIEW: Test C preemergence
Assay type: in vivo, Brassica napus
STUDY CONDITIONS: preemergence, 31 g ai/ha; visual rating, scale 0 to 100 (0 no effect, 100 complete control), 13 to 15 days
Consider the following molecules; for each one, report its Oilseed Rape plant response rating.
Answers are plain numbers.

Some solved cases for reference:
CCCNC(=O)c1cc(OCC)n(Cc2ccnc(C(F)(F)F)c2)n1 [Compound 187]	50
CCc1cc(C(=O)NCC(F)(F)F)nn1Cc1ccnc(SC(F)(F)F)c1 [Compound 214]	80
O=C(NC1CC1)c1cc(CCCl)n(Cc2ccnc(C(F)(F)F)c2)n1 [Compound 144]	80

Continue with the molecule presented below.
Tested system oilseed rape; Oilseed Rape plant response rating recorded for CCCc1cc(C(=O)NC2CC2)nn1Cc1cc(C(F)(F)F)nn1C [Compound 202] was 100

---

Tested on: johnsongrass
ASSAY OVERVIEW: Test C preemergence
Type: in vivo, Sorghum halepense
STUDY CONDITIONS: preemergence, 250 g ai/ha; scale 0 to 100, 0 is no effect, 100 is complete control
MEASURED ENDPOINT: Johnsongrass plant response rating
Answers are plain numbers.

// worked examples, Johnsongrass plant response rating included
O=C(NCC(F)(F)F)c1cc(CCF)n(Cc2ccnc(C(F)(F)F)c2)n1	100
CCc1cc(C(=O)NC2CC2)nn1Cc1ccnc(Br)c1	80
CCc1cc(C(=O)NCC(F)(F)F)nn1Cc1ccnc(SC(F)(F)F)c1	90

Provide each entry's Johnsongrass plant response rating from the list below.
1. CCCNC(=O)c1cc(OCC)n(Cc2ccnc(OC(F)F)c2)n1
2. O=C(NC1CC1)c1cc(CCF)n(Cc2ccnc(C(F)(F)F)c2)n1
3. CCCNC(=O)c1cc(CCF)n(Cc2ccnc(C(F)(F)F)c2)n1

Result ::
[100, 85, 98]

Johnsongrass plant response rating recorded for this compound, CCNC(=O)c1cc(CC)n(Cc2cc(C(F)(F)F)nn2C)n1 , is 85
